# credit: ChEMBL document CHEMBL6177949

Measurement Notes: Volume of distribution at steady state in BALB/c mouse at 1 mg/kg, iv administered as bolus dose by LC-MS/MS analysis
Type: ADME, organism-based
Measurement Parameters: in vivo, read-out: Vdss
Parameter: Vd. Scope: all listed entries.

{"Molecule": "C[C@@H](Nc1nc2c(c3cc(=O)n(C4CC4)cc13)CC(N1CC[C@@H](F)C1)CC2)c1cccc(C(F)F)c1F (some centres not stated)", "Vd": "4.6 L/kg"}

The record that follows has no Vd shown yet.
Entry under review: C[C@@H](Nc1nc2c(c3cc(=O)n(C4CC4)cc13)CC(N1CCC1)CC2)c1cccc(C(F)F)c1F (some centres not stated) . Reported Vd?
4.1 L/kg

* * *

Measurement Notes: Intrinsic clearance in mouse liver microsomes at 1 uM measured after 0.5 to 30 mins in presence of NADPH by LC-MS/MS analysis
Format: ADME, Microsome
Measurement Parameters: time 0.5-30 min, read-out: CLH
Measured Endpoint: CLint scaled at 1 µM (mL/min/kg)
Report only the number, with the unit mL/min/kg understood.

{"Compound": "Cc1c([C@@H](C)Nc2nc3c(c4cc(=O)n(C5CCOCC5)cc24)CNCC3)cccc1C(F)(F)F", "Measured Endpoint": "CLint scaled at 1 µM", "Reported Value": 46}
{"Compound": "C[C@@H](Nc1nc2c(c3cc(=O)n(C4CC4)cc13)CC(N1CCC1)CC2)c1cccc(C(F)F)c1F (stereo partly drawn)", "Measured Endpoint": "CLint scaled at 1 µM", "Reported Value": 49}

The record that follows has no CLint scaled at 1 µM shown yet.
Entry under review: C[C@@H](Nc1nc2c(c3cc(=O)n(C4CC4)cc13)CC(N1CC[C@@H](F)C1)CC2)c1cccc(C(F)F)c1F (stereo partly drawn) . Reported CLint scaled at 1 µM?
143

* * *

Measurement Notes: Kinetic solubility of the compound in pH 7.4 phosphate buffered saline at 300 uM measured after 2 hrs by LC-MS/MS analysis
Format: physicochemical
Measurement Parameters: read-out: Kinetic_solubility
Measured Endpoint: solubility kinetic at 2 h, 300 µM (µM)
Report only the number, with the unit µM understood.

{"Compound": "C[C@@H](Nc1nc2c(c3cc(=O)n(C4CC4)cc13)CC(N1CCC1)CC2)c1cccc(C(F)F)c1F (some centres not stated)", "solubility kinetic at 2 h, 300 µM (µM)": 226}

The record that follows has no solubility kinetic at 2 h, 300 µM shown yet.
Entry under review: C[C@@H](Nc1nc2c(c3cc(=O)n(C4CC4)cc13)CC(N1CC[C@@H](F)C1)CC2)c1cccc(C(F)F)c1F (some centres not stated) . Reported solubility kinetic at 2 h, 300 µM?
90

* * *

Measurement Notes: Lipophilicity, log D of the compound in octanol/phosphate buffer at pH 7.4 measured after 2 hrs by LC-MS/MS based shake flask method
Type: physicochemical
Measured Endpoint: logD at 2 h
Write the value as a bare number.

{"Molecule": "Cc1c([C@@H](C)Nc2nc3c(c4cc(=O)n(C5CCOCC5)cc24)CNCC3)cccc1C(F)(F)F", "Reported Value": 2.9}
{"Molecule": "C[C@@H](Nc1nc2c(c3cc(=O)n(C4CC4)cc13)CC(N1CCC1)CC2)c1cccc(C(F)F)c1F (stereo partly drawn)", "Reported Value": 2.6}

The record that follows has no logD at 2 h shown yet.
Entry under review: C[C@@H](Nc1nc2c(c3cc(=O)n(C4CC4)cc13)CC(N1CC[C@@H](F)C1)CC2)c1cccc(C(F)F)c1F (stereo partly drawn) . Reported logD at 2 h?
3.7

* * *

Experimental Target: Voltage-gated inwardly rectifying potassium channel KCNH2 (Homo sapiens)
Sequence (Q12809 whole entry): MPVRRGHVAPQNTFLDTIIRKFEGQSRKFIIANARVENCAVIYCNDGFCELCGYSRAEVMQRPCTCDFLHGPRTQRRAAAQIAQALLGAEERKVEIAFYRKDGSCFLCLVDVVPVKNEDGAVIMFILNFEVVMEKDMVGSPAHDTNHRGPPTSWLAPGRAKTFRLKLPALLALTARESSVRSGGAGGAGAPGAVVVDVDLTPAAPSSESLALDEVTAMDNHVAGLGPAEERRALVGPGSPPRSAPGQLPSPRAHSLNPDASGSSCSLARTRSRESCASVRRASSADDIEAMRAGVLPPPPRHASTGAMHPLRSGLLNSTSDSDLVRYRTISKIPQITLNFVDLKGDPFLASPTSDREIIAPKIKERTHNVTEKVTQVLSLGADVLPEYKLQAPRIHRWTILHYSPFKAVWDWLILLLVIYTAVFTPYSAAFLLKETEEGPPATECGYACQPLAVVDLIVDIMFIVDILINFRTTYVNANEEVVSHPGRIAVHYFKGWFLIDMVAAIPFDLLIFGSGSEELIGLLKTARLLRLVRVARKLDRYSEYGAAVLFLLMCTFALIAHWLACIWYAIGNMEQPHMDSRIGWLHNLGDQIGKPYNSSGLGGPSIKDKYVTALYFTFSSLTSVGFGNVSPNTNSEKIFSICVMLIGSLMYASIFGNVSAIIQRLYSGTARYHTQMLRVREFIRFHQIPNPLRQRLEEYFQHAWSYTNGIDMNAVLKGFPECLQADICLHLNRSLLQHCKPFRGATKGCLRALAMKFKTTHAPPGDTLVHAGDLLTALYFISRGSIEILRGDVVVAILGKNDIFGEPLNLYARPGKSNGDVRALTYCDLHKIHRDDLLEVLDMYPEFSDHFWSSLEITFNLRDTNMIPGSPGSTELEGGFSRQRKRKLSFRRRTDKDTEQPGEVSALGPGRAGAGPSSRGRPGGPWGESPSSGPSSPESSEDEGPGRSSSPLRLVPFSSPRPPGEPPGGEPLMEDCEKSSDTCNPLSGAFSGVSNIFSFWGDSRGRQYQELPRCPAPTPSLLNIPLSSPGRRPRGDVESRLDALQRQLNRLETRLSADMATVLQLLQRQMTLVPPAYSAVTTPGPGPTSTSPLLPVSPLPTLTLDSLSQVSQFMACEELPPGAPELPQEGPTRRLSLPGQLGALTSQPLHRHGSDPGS
Measurement Notes: Inhibition of human ERG stably transfected in HEK293 cells by manual patch-clamp assay
Measured Endpoint: pIC50
pIC50 is a log-scale quantity: -log10 of the concentration expressed in molar.

{"Molecule": "C[C@@H](Nc1nc2c(c3cc(=O)n(C4CC4)cc13)CC(N1CC[C@@H](F)C1)CC2)c1cccc(C(F)F)c1F (some centres not stated)", "Measured Endpoint": "pIC50", "Reported Value": 5.96}

The record that follows has no pIC50 shown yet.
Entry under review: C[C@@H](Nc1nc2c(c3cc(=O)n(C4CC4)cc13)CC(N1CCC1)CC2)c1cccc(C(F)F)c1F (some centres not stated) . Reported pIC50?
5.96

* * *

Experimental Target: Son of sevenless homolog 1 (Homo sapiens, UniProt Q07889, G12C)
Sequence (Q07889 whole entry, looked up, stated change not applied, the tested form may be a part): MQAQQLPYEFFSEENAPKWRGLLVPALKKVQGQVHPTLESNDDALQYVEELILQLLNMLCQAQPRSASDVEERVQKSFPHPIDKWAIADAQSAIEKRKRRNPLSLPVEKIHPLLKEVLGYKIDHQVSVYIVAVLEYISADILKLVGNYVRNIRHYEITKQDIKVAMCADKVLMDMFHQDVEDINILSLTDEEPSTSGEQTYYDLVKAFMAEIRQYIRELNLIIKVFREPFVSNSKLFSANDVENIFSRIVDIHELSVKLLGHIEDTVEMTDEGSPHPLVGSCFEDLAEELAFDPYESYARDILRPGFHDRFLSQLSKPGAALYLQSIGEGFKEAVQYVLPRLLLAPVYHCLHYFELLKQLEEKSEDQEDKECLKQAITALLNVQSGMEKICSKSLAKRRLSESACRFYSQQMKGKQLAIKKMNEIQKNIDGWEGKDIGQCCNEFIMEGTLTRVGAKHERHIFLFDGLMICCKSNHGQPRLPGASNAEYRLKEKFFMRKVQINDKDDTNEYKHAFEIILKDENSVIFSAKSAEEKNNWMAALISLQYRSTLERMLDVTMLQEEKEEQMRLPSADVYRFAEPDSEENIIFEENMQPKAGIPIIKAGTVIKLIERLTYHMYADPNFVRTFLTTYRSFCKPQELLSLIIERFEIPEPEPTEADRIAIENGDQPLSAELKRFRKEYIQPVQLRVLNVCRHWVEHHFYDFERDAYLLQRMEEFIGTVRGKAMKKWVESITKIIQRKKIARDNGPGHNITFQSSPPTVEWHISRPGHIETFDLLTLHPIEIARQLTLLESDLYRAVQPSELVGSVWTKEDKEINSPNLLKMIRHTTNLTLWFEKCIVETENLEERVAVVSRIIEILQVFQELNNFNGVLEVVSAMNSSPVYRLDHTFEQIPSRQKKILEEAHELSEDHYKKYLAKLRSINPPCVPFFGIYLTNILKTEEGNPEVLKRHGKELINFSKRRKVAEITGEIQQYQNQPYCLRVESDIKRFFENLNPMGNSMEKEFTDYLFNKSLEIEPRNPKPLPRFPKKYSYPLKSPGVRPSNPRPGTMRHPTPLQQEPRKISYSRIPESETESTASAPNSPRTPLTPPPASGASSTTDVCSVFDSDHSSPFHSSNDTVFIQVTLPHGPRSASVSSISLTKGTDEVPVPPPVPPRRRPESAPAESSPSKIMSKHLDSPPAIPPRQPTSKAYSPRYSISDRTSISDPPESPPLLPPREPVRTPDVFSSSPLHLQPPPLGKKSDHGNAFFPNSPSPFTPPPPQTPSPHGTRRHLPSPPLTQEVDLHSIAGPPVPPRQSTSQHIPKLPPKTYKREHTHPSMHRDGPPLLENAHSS
Measurement Notes: Binding affinity to recombinant human His10-tagged SOS1 (564 to 1049 residues) assessed as inhibition of GST-tagged human KRAS G12C mutant (1 to 169 residues) interaction with SOS1 preincubated for 15 mins followed by KRAS addition and measured after 2 hrs by FRET assay
Measured Endpoint: IC50

Entry under review: Oc1cc(-c2ncc3c(N4C[C@H]5CC[C@@H](C4)N5)nc(OCC45CCCN4CCC5)nc3c2F)c2ccccc2c1 . Reported IC50?
< 2 nM

* * *

Measurement Notes: Half life in BALB/c mouse at 1 mg/kg, iv administered as bolus dose by LC-MS/MS analysis
Format: ADME, organism-based
Measurement Parameters: in vivo
Measured Endpoint: half-life (min)
Report only the number, with the unit min understood.

{"Compound": "C[C@@H](Nc1nc2c(c3cc(=O)n(C4CC4)cc13)CC(N1CC[C@@H](F)C1)CC2)c1cccc(C(F)F)c1F (some centres not stated)", "half-life / min": 240}

The record that follows has no half-life shown yet.
Entry under review: C[C@@H](Nc1nc2c(c3cc(=O)n(C4CC4)cc13)CC(N1CCC1)CC2)c1cccc(C(F)F)c1F (some centres not stated) . Reported half-life?
66

* * *

Measurement Notes: Dissociation constant, pKa of compound at 33 uM by UV-vis spectroscopy
Assay type: physicochemical
Measured Endpoint: pKa at 33 µM
Write the value as a bare number.

Entry under review: Cc1c([C@@H](C)Nc2nc3c(c4cc(=O)n(C5CCOCC5)cc24)CNCC3)cccc1C(F)(F)F . Reported pKa at 33 µM?
8.8

Record: C[C@@H](Nc1nc2c(c3cc(=O)n(C4CCOCC4)cc13)CC(N1CC(F)(F)C1)CC2)c1cccc(C(F)F)c1F (some centres undefined)
6.1

Record: COC1CN(C2CCc3nc(N[C@H](C)c4cccc(C(F)F)c4F)c4cn(C5CCOCC5)c(=O)cc4c3C2)C1 (some centres undefined)
7.8

Record: C[C@@H](Nc1nc2c(c3cc(=O)n(C4CCOCC4)cc13)CC(N1CCC1)CC2)c1cccc(C(F)F)c1F (some centres undefined)
9.3

* * *

Measurement Notes: Apparent permeability across apical to basolateral side in MDCKII-MDR1 cells at 10 uM measured after 60 mins by LC-MS/MS analysis
Assay type: ADME, cell-based, Canis lupus familiaris
Measurement Parameters: dog, MDCK-MDR1
Parameter: Papp A→B at 1 h, 10 µM. Scope: all listed entries.

{"Compound": "C[C@@H](Nc1nc2c(c3cc(=O)n(C4CC4)cc13)CC(N1CCC1)CC2)c1cccc(C(F)F)c1F (some centres undefined)", "Measured Endpoint": "Papp A→B at 1 h, 10 µM", "Reported Value": "0.3 ×10⁻⁶ cm/s"}
{"Compound": "C[C@@H](Nc1nc2c(c3cc(=O)n(C4CC4)cc13)CC(N1CC[C@@H](F)C1)CC2)c1cccc(C(F)F)c1F (some centres undefined)", "Measured Endpoint": "Papp A→B at 1 h, 10 µM", "Reported Value": "0.2 ×10⁻⁶ cm/s"}
{"Compound": "Cc1c([C@@H](C)Nc2nc3c(c(=O)n2C)CNCC3)cccc1C(F)(F)F", "Measured Endpoint": "Papp A→B at 1 h, 10 µM", "Reported Value": "3.2 ×10⁻⁶ cm/s"}

Entry under review: Cc1c([C@@H](C)Nc2nc3c(c4cc(=O)n(C5CCOCC5)cc24)CNCC3)cccc1C(F)(F)F . Reported Papp A→B at 1 h, 10 µM?
0.2 ×10⁻⁶ cm/s

* * *

Test system: NCI-H358
Measurement Notes: cells
Measurement Parameters: Homo sapiens
Description: Antiproliferative activity against human NCI-H358 cells assessed as reduction in cell viability incubated for 10 days with media refreshed for every 5 days by celltiter-glo assay
Parameter: pIC50. Scope: all listed entries.
pIC50 is a log-scale quantity: -log10 of the concentration expressed in molar.

{"Compound": "C[C@@H](Nc1nc2c(c3cc(=O)n(C4CC4)cc13)CC(N1CC[C@@H](F)C1)CC2)c1cccc(C(F)F)c1F (some centres undefined)", "Experimental Target": "NCI-H358", "pIC50": 7.49}
{"Compound": "COc1cc2nc(C)nc(N[C@H](C)c3cc(N)cc(C(F)(F)F)c3)c2cc1O[C@H]1CCOC1", "Experimental Target": "NCI-H358", "pIC50": 7.49}
{"Compound": "C[C@@H](Nc1nc2c(c3cc(=O)n(C4CC4)cc13)CC(N1CCC1)CC2)c1cccc(C(F)F)c1F (some centres undefined)", "Experimental Target": "NCI-H358", "pIC50": 7.72}

The record that follows has no pIC50 shown yet.
Entry under review: Cc1c(C#N)cccc1[C@@H](C)Nc1nnc(C)c2cnc(N3CCOCC3)cc12 [MRTX-0902] . Reported pIC50?
7.66
